Read-out: Matrix Metallopeptidase 1 (MMP1), MMP1 (gene 4312)
Procedure Summary: BSK_hDFCGF_MMP1: BioMAP Diversity Plus: hDFCGF Assay for Matrix Metallopeptidase 1 (MMP1) Biomarker Activity (AID 2283064)
Test Settings: primary human foreskin fibroblasts; actives raise or lower the signal
The source made the active and inactive calls. The calls were made as follows: active = hit-call score of the fitted dose curve at least 0.9, where 1 is the maximum; inactive = score below 0.9.
I would appreciate it if you answered using one of these outcomes: 1 (active), -1 (inactive)

Hi team, can someone confirm the assay call for CC(=O)[C@H]1CC[C@H]2[C@@H]3CCC4=CC(=O)CC[C@]4(C)[C@H]3CC[C@]12C ?
-1

Hi team, can someone confirm the assay call for CCNc1nc(N)nc(Cl)n1 ?
-1

Hi team, can someone confirm the assay call for CCOC(=O)C(C)Oc1ccc(Oc2cnc3cc(Cl)ccc3n2)cc1 (stereo not drawn) ?
-1

Hi team, can someone confirm the assay call for C[C@]12C[C@H](O)[C@H]3[C@@H](CCC4=CC(=O)CC[C@@]43C)[C@@H]1CC[C@@H]2C(=O)CO ?
1

Hi team, can someone confirm the assay call for C#CCOC(=O)[C@@H](C)Oc1ccc(Oc2ncc(Cl)cc2F)cc1 ?
-1

Hi team, can someone confirm the assay call for CCC(C)OC(=O)N1CCCCC1CCO (stereo not drawn) ?
-1

Hi team, can someone confirm the assay call for CC(C)CCCCCCc1ccc(O)cc1 ?
1

Hi team, can someone confirm the assay call for CCSC(=O)N(CC(C)C)CC(C)C ?
-1

Hi team, can someone confirm the assay call for CCCCC(CC)CN1C(=O)C2C3C=CC(C3)C2C1=O (stereo not drawn) ?
1

Hi team, can someone confirm the assay call for CCOC(=O)COc1cc(-n2ncc(C(F)(F)F)c(C)c2=O)c(F)cc1Cl ?
-1

Hi team, can someone confirm the assay call for CCCCCOC(=O)COc1cc(N2C(=O)C3=C(CCCC3)C2=O)c(F)cc1Cl ?
-1

Hi team, can someone confirm the assay call for CCCOC(=O)NCCCN(C)C ?
-1

Hi team, can someone confirm the assay call for CC(C)(c1ccc(O)cc1)c1ccc(O)cc1 ?
-1
